Species: Rattus norvegicus
TEST: Open TG-GATES - Regimen: Daily Repeat
Type: toxicity, organism-based, Sprague-Dawley
Set-up: regimen Daily Repeat, gender Male, age 6 weeks
EXPERIMENTAL PARAMETERS: in vivo, po, 10 mg/kg, […], tissue Kidney, route gavage, dose level Low, time 14 day
READOUT: KIDNEY_L (g)
Kindly answer with a numeric value in g, unit omitted.

For CC1=C(/C=C/C(C)=C/C=C/C(C)=C/CO)C(C)(C)CCC1 [RETINOL] the compound record lists KIDNEY_L as 1.1

Measured KIDNEY_L, `CN(C)CCN(Cc1cccs1)c1ccccn1` : 1.1

Measured KIDNEY_L, CC(C)OC(=O)C(C)(C)Oc1ccc(C(=O)c2ccc(Cl)cc2)cc1 [FENOFIBRATE] : 1.3

Record CN(C)CCCN1c2ccccc2CCc2ccccc21 [IMIPRAMINE] . Reported KIDNEY_L: 1.3

###

Organism: Rattus norvegicus
TEST: Open TG-GATES - Regimen: Single
Type: toxicity, organism-based, Sprague-Dawley
Set-up: regimen Single, gender Male, age 6 weeks
EXPERIMENTAL PARAMETERS: in vivo, po, 100 mg/kg, 3 h, tissue Plasma, route gavage, dose level High
Please provide measured CRE for the entries that follow.
Output spec: scalar in mg/dL, unitless text.

For reference, reported CRE for `CN(C)CCN(Cc1cccs1)c1ccccn1` stands at 0.1

For this molecule ( `CN(C)CCCN1c2ccccc2CCc2ccc(Cl)cc21` ), measured CRE is 0.1

Note to self: CRE recorded for `CN(C)CCCN1c2ccccc2CCc2ccccc21` was 0.1

// CRE value for `CC1=C(/C=C/C(C)=C/C=C/C(C)=C/CO)C(C)(C)CCC1` : 0.2

###

Give BUN for every item shown.
Species on record: Rattus norvegicus
TEST: Open TG-GATES - Regimen: Daily Repeat
Assay type: toxicity, organism-based, Sprague-Dawley
Set-up: regimen Daily Repeat, gender Male, age 6 weeks
EXPERIMENTAL PARAMETERS: in vivo, po, 1000 mg/kg, […], tissue Plasma, route gavage, dose level High, time 7 day
The figure you give is taken to be in mg/dL; do not add the unit.

BUN in this record for CCOC(=O)CCC(=O)O[C@H]1[C@H](O[C@@H]2[C@@H](C)[C@H](O[C@H]3C[C@@](C)(OC)[C@@H](O)[C@H](C)O3)[C@@H](C)C(=O)O[C@H](CC)[C@@](C)(O)[C@H](O)[C@@H](C)C(=O)[C@H](C)C[C@@]2(C)O)O[C@H](C)C[C@@H]1N(C)C [ERYTHROMYCIN ETHYLSUCCINATE] : 18.2

// `NC(N)=Nc1nc(CSCCC(N)=NS(N)(=O)=O)cs1` : BUN value = 14.6

Measured BUN, `COC1=CC(=O)C[C@@H](C)[C@]12Oc1c(Cl)c(OC)cc(OC)c1C2=O` : 15.2

// sample CCOc1ccc(NC(=O)CC(C)O)cc1 (stereo not given) , its BUN was 16

Per the record, COc1ccc2[nH]c([S+]([O-])Cc3ncc(C)c(OC)c3C)nc2c1 (stereo not given) has BUN of 16.6

###

Species: Rattus norvegicus
TEST: Open TG-GATES - Regimen: Daily Repeat
Type: toxicity, organism-based, Sprague-Dawley
Parameters: regimen Daily Repeat, gender Male, age 6 weeks
EXPERIMENTAL PARAMETERS: in vivo, po, 100 mg/kg, […], tissue Plasma, route gavage, dose level Low, time 28 day
READOUT: PL (mg/dL)
I only need the number, in mg/dL, no unit after it.

Entry under test: COc1ccc2[nH]c([S+]([O-])Cc3ncc(C)c(OC)c3C)nc2c1 (stereo not given) . Its PL was 141

Record summary for CCOc1ccc(NC(=O)CC(C)O)cc1 (stereo not given) : reported PL = 155

The compound listed as CCOC(=O)CCC(=O)O[C@H]1[C@H](O[C@@H]2[C@@H](C)[C@H](O[C@H]3C[C@@](C)(OC)[C@@H](O)[C@H](C)O3)[C@@H](C)C(=O)O[C@H](CC)[C@@](C)(O)[C@H](O)[C@@H](C)C(=O)[C@H](C)C[C@@]2(C)O)O[C@H](C)C[C@@H]1N(C)C [ERYTHROMYCIN ETHYLSUCCINATE] shows PL equal to 152

Kindly note the recorded PL for `COC1=CC(=O)C[C@@H](C)[C@]12Oc1c(Cl)c(OC)cc(OC)c1C2=O` , which is 120.4

The compound listed as `NC(N)=Nc1nc(CSCCC(N)=NS(N)(=O)=O)cs1` shows PL equal to 121.2

Data origin: ChEMBL document CHEMBL3885861
